Molecular target: PIN1-CD (catalytic PIN1 domain, devoid of the PIN1 WW domain) (Homo sapiens)
Sequence (Q13526 52-163 limits assumed): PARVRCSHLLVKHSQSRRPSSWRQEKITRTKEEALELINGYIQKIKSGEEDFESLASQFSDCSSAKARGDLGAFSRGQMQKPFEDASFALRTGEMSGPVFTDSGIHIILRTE
pKd: −log10 of the molar value.
Listing of entries alongside the reported pKd.
observation.type: pKd

- molecule: "O=C(N[C@@H](COP(=O)(O)O)Cc1ccccc1)c1ccc(Cl)c(Cl)c1"
  result: "> 6.00"
- molecule: "O=C(N[C@@H](COP(=O)(O)O)Cc1ccccc1)c1ccc(Oc2cc(Cl)cc(Cl)c2)o1"
  result: "> 6.00"
- molecule: "O=C(N[C@@H](COP(=O)(O)O)Cc1ccccc1)c1ccc2cc(O)ccc2c1"
  result: "> 6.00"
- molecule: "O=C(O)[C@@H]1CCCCN1C(=O)N[C@@H](COP(=O)(O)O)Cc1ccccc1 [Example 16d]"
  result: "> 5.00"
- molecule: "NS(=O)(=O)OC[C@@H](Cc1ccccc1)NC(=O)c1ccc2ccccc2c1"
  result: "> 4.00"
- molecule: "O=C(N[C@@H](COP(=O)(O)O)Cc1ccccc1)c1cc2ccccc2[nH]1"
  result: "> 6.00"
- molecule: "O=C(N[C@@H](COP(=O)(O)O)Cc1ccccc1)c1cc2ccccc2o1"
  result: "> 6.00"
- molecule: "O=C(N[C@@H](COP(=O)(O)O)Cc1ccccc1)c1cc2ccccc2[s+]1[O-] (stereo in doubt)"
  result: "> 6.00"
- molecule: "O=C(Nc1ccccc1Oc1ccccc1)N[C@@H](COP(=O)(O)O)Cc1ccccc1 [Example 23b]"
  result: "> 6.00"
- molecule: "COc1ccc2cc(C(=O)N[C@@H](COP(=O)(O)O)Cc3cccc(C)c3)ccc2c1"
  result: "> 6.00"
- molecule: "CC(C)(C)OC(=O)N[C@@H](COP(=O)(O)O)Cc1cccnc1"
  result: "> 5.00"
- molecule: "O=C(N[C@@H](COP(=O)(O)O)Cc1ccccc1)c1ccccc1O"
  result: "> 5.00"
- molecule: "O=P(O)(O)OC[C@@H](Cc1ccccc1)NS(=O)(=O)N1CCCC[C@H]1c1nnc(Cc2ccccc2)o1"
  result: "> 5.00"
- molecule: "O=C(N[C@@H](COP(=O)(O)O)Cc1ccccc1)c1ccco1"
  result: "> 5.00"
- molecule: "O=C(O[C@@H](COP(=O)(O)O)Cc1cccc(F)c1)c1ccc2ccccc2c1"
  result: "> 6.00"
- molecule: "O=C(N[C@@H](COP(=O)(O)O)Cc1ccccc1)c1ccc2ccccc2c1O"
  result: "> 6.00"
- molecule: "CN(C(=O)c1ccc2ccccc2c1)C(COP(=O)(O)O)Cc1ccccc1 (stereo not shown)"
  result: "> 5.00"
- molecule: "COc1cc(C)cc(NC(=O)N[C@@H](COP(=O)(O)O)Cc2ccccc2)c1 [Example 23c]"
  result: "> 6.00"
- molecule: "Cc1nn(-c2ccccc2)nc1C(=O)N[C@@H](COP(=O)(O)O)Cc1ccccc1"
  result: "> 6.00"
- molecule: "O=C(N[C@H](CCc1ccccc1)COP(=O)(O)O)c1ccc2ccccc2c1"
  result: "> 5.70"
- molecule: "O=C(N[C@@H](COP(=O)(O)O)Cc1ccccc1)c1sccc1Cl"
  result: "> 6.00"
- molecule: "O=C(N[C@@H](COP(=O)(O)O)Cc1cccc(F)c1)c1ccc2ccccc2c1Br"
  result: "> 6.00"
- molecule: "O=C(N[C@@H](COP(=O)(O)O)Cc1ccccc1)c1ccc2[nH]cnc2c1"
  result: "> 6.00"
- molecule: "O=C(O[C@@H](COP(=O)(O)O)Cc1cccc(F)c1)c1cc2ccccc2s1"
  result: "> 6.00"
- molecule: "Cc1cccc(C[C@H](COP(=O)(O)O)NC(=O)c2ccc3ccccc3c2Br)c1"
  result: "> 6.00"
